Ref: patent US9604933B2

# Non-small cell lung: GI50 values follow
Numbers only, in nM.

Check out these entries, answers already filled in.
compound=COc1ccc(C(=O)/C=C/c2cc(-c3cc(OC)c(OC)c(OC)c3)n[nH]2)cc1OC endpoint_label=GI50 value_observed=1230
compound=COc1ccc(C(=O)/C=C/c2cc(-c3cc(OC)c(OC)c(OC)c3)n[nH]2)cc1 endpoint_label=GI50 value_observed=1820
compound="COc1cc(C(=O)/C=C/c2cc(-c3cc(OC)c(OC)c(OC)c3)n[nH]2)cc(OC)c1OC [10e]" endpoint_label=GI50 value_observed=1290

Could you now consider this next compound?
Look at this compound and give its reported GI50. COc1cc(-c2cc(/C=C/C(=O)c3ccc(Cl)c(Cl)c3)[nH]n2)cc(OC)c1OC [12e]
6610

----------
System: Melanoma
Assignment: determine reported GI50 for the given compounds.
Answers are plain numbers, in nM.

Examples with answers:
compound="COc1ccc(C(=O)/C=C/c2cc(-c3cc(OC)c(OC)c(OC)c3)n[nH]2)cc1 [7e]" uom=nM value_observed=2090
compound="COc1cc(-c2cc(/C=C/C(=O)c3ccc(Cl)c(Cl)c3)[nH]n2)cc(OC)c1OC [12e]" uom=nM value_observed=13200
compound="COc1cc(C(=O)/C=C/c2cc(-c3cc(OC)c(OC)c(OC)c3)n[nH]2)cc(OC)c1OC [10e]" uom=nM value_observed=1700

Shifting focus to the compound that follows.
Reported GI50 for Melanoma, given COc1ccc(C(=O)/C=C/c2cc(-c3cc(OC)c(OC)c(OC)c3)n[nH]2)cc1OC [8e] ?
1700

----------
System: Colon
experimental-details: NCI SRB cytotoxicity, colon panel average
Assay type: cell-based, human
experimental-context: Homo sapiens, average of cell lines, read-out: Log10 LC50 (concentration in mol/L causing 50% cell death) (converted)
Description: The pyrazolochalcones (7e, 8e, 10e, 11e, 12e, 13e and 8f) have been tested against fifty nine human tumor cell lines derived from nine cancer types (leukemia, non-small cell lung cancer, colon cancer, CNS cancer, melanoma, ovarian cancer, renal cancer, prostate cancer and breast cancer) as per the NCI protocol. For each compound, dose response curves for individual cell lines have been measured at a minimum of five concentrations at 10 fold dilutions. […]
Threshold 20 µM: LC50 strictly smaller gives fulfilled, otherwise not fulfilled.

compound="COc1cc(-c2cc(/C=C/C(=O)c3ccc4c(c3)OCO4)[nH]n2)cc(OC)c1OC [11e]" assigned_class="not fulfilled"
compound=COc1ccc(C(=O)/C=C/c2cc(-c3ccc4c(c3)OCO4)n[nH]2)cc1OC assigned_class="not fulfilled"
compound=COc1ccc(C(=O)/C=C/c2cc(-c3cc(OC)c(OC)c(OC)c3)n[nH]2)cc1 assigned_class=fulfilled
compound="COc1cc(-c2cc(/C=C/C(=O)c3ccc(Cl)c(Cl)c3)[nH]n2)cc(OC)c1OC [12e]" assigned_class="not fulfilled"
compound=COc1ccc(C(=O)/C=C/c2cc(-c3cc(OC)c(OC)c(OC)c3)n[nH]2)cc1OC assigned_class=fulfilled

Hi there! Is LC50 for COc1cc(-c2cc(/C=C/C(=O)c3ccc(F)c(F)c3)[nH]n2)cc(OC)c1OC [13e] below 20 µM, do you know?
not fulfilled

Item COc1cc(C(=O)/C=C/c2cc(-c3cc(OC)c(OC)c(OC)c3)n[nH]2)cc(OC)c1OC [10e] : LC50 beneath 20 µM, strictly?
fulfilled
